target: HIV protease (Human immunodeficiency virus type 1 group M subtype B); construct: the protease expressed in Escherichia coli; assay: Inhibition of microbial expressed viral protease (peptide substrate cleavage, HPLC of products); details: estimated activities; compounds as isolated from rat liver slices; pH 5.5, 2 hours at 36° C., 283 pM protease
# pIC50 annotations
Keep it numeric: pIC50 is minus log10 of the concentration in mol/L.

* CC(C)(C)OC(=O)N[C@@H](Cc1ccccc1)[C@@H](O)C[C@@H](Cc1ccc(OCCN2CCOCC2)cc1)C(=O)N[C@H]1c2cccc(O)c2C[C@H]1O [M2] | 8.89

Sample CC(C)(C)OC(=O)N[C@@H](Cc1ccccc1)[C@@H](O)C[C@@H](Cc1ccc(OCCN2CCOCC2)cc1)C(=O)N[C@H]1c2ccccc2[C@H](O)[C@H]1O [M1] — what was its pIC50?
8.57

* * *

test: Biotransformation of L-689,502 by rat liver slices; type: in vitro ADME; conditions: over 5 hours, pH 7.4, 37° C., rat liver slices, 5.65 μmole in 100 ml Williams' Medium E; read-out: drug metabolized
value_type: metabolised at 5 h, 56.5 µM

Can you look up the measured metabolised at 5 h, 56.5 µM of CC(C)(C)OC(=O)N[C@@H](Cc1ccccc1)[C@@H](O)C[C@@H](Cc1ccc(OCCN2CCOCC2)cc1)C(=O)N[C@H]1c2ccccc2C[C@H]1O for me?
~31%
